List of TGI values.
System: MCF7 breast
Experiment: NCI tumour cell line growth inhibition, 48 h

molecule	TGI
OC1(c2ccc(Cl)cc2)c2c(c3ccccc3c3ccccc23)C2=NCCN21 (centres undefined)	41.7 µM
COc1ccc(Cn2c3ccc([N+](=O)[O-])cc3c(=O)n2Cc2ccccn2)cc1	> 100 µM
O=C1c2cc3c(cc2CC1Cc1ccc2c(c1)CCC2)CCC3 (centres undefined)	> 100 µM
COc1cc(-c2nc(-c3ccc(-c4nc5ccc(F)cc5[nH]4)cc3)no2)cc(OC)c1OC	13.5 µM
COC12C=CC(CC1)C(C)(C)C2OS(C)(=O)=O (centres undefined)	> 100 µM
CN(C)c1ccc(Nc2c3ccccc3nc3cc(NC(=O)CCN4CCCC4)ccc23)cc1	1.61 µM
O=C(c1nn(-c2ccc(Cl)cc2)cc1O)n1nc(C(F)(F)F)cc1-c1ccccc1	> 100 µM
CC(=O)O[C@H]1C[C@](C)(O)[C@@]23CC([C@@H](OC(=O)C(C)(C)O)[C@@H](OC(C)=O)C2(COC(=O)c2ccccc2)[C@H]1OC(C)=O)C(C)(C)O3 (some centres undefined)	> 100 µM
C[C@@]12C[C@@H](c3ccccc3O1)N1Cc3ccccc3CSC1=N2	> 100 µM
CCN(CC)c1ccc2cc(C(N)=O)c(=Nc3ccc(F)cc3)oc2c1	> 100 µM
NC(=O)c1sc(-n2cnc3ccc(C(F)(F)F)cc32)cc1OCc1ccccc1Br	> 6.28 µM
O=C(N[C@H]1CCC[C@H]1C(=O)Nc1ccc(C(F)(F)F)cc1)OCc1ccccc1	> 100 µM
CN1CCN(c2ccc3nc(-c4[nH]ncc4Nc4ncnc5c4OCCCN5)[nH]c3c2)CC1	0.145 µM
CCCCOc1ccc2c(c1)CC[C@@H]1[C@@H]2CC[C@]2(C)C(=O)N(CCCC)C(=O)C[C@@H]12	> 100 µM
O=C(Cn1c(C(=O)c2ccc(Cl)cc2)nc(-c2ccccc2)c1-c1ccccc1)c1ccc(Cl)cc1	> 100 µM
O=C(c1ccccc1)c1c(C(F)(F)F)n([O-])c2cc(F)c(F)cc2[n+]1=O	1.71 µM
CN(C)CC1CCCc2ccccc2C1=O (centres undefined)	0.644 µM
CC(=O)Nc1ccc(-c2csc(Nc3cccc(-c4csc(-c5ccccc5)n4)c3)n2)cc1	> 50 µM
CC(=O)c1ccc2c3c1O[C@H]1c4[nH]c5ccccc5c4C[C@@]4(O)[C@@H](C2)N(CC2CC2)CC[C@]314	30.4 µM
Cc1ccc(C#CS(=O)(=O)C(F)(F)F)cc1	> 100 µM
CCOC1NC(/N=C/c2ccc(OC)cc2)=C(C#N)C1C#N (centres undefined)	> 100 µM
COC1=CC(=O)c2nc3ccccc3c3ccnc1c23	15.2 µM
CN1C=COC1N=C1CCCCC1 (centres undefined)	> 100 µM
Cc1ccc2nc3c(n2c1)C(=O)C(=O)c1ccccc1-3	0.308 µM
NCCS(=O)(=O)O	> 100 µM
CC(=O)N1C(Nc2cccc3nc(C)ccc23)CCN1c1ccccc1 (centres undefined)	> 10 µM
Cc1c2oc3c(C)cc(F)c(C(=O)NC4C(=O)NC(C(C)C)C(=O)N5CCCC5C(=O)N(C)CC(=O)N(C)C(C(C)C)C(=O)OC4C)c3nc-2c(C(=O)NC2C(=O)NC(C(C)C)C(=O)N3CCCC3C(=O)N(C)CC(=O)N(C)C(C(C)C)C(=O)OC2C)c(N)c1=O (centres undefined)	60.6 µM
CCOC(=O)C1=C(c2ccccc2)C12N(Cc1ccccc1)C(=O)C2(c1ccccc1)c1ccccc1 (centres undefined)	> 100 µM
CC(=O)OCC1OC(n2c(N)c(C#N)c(-c3cccc(Cl)c3)c(C#N)c2=S)C(OC(C)=O)C(OC(C)=O)C1OC(C)=O (centres undefined)	> 100 µM
COc1cc(O)cc(O)c1C(=O)CC(Cl)(Cl)Cl	> 100 µM
O=C1O[C@H]2C3C4CCC(C4[C@@H]2I)[C@H]13 (some centres undefined)	> 100 µM
O=C1c2cccnc2-c2nccc3c2c1nc1ccc(Br)cc13	< 0.03 µM
CCCC(C)c1c(Cl)nc(Cl)nc1Cl (centres undefined)	26.3 µM
O=C1CC(c2ccsc2)c2snc(-c3ccc(Cl)cc3)c2N1 (centres undefined)	> 100 µM
CO[C@]12CC(=O)C3(C(C[C@H]4CC5CC[C@H]6C[C@@H](OC(C)=O)CC[C@]6(OC(C)=O)C5C[C@@]43C)C1)C1C[C@H]3[C@@H]4CC[C@H]5C[C@@H](OC(C)=O)CC[C@]5(OC(C)=O)[C@H]4CC[C@]3(C)C12 (some centres undefined)	> 100 µM
COc1ccc(-c2nnc(SCC(=O)Nc3ccc(C(=O)/C=C/c4cc(OC)c(OC)c(OC)c4)cc3)n2-c2ccccc2)cc1OC	> 10 µM
O=C1/C(=C/c2ccc(Cl)cc2)CCC1CN1CCOCC1 (centres undefined)	21 µM
CC(C)=CCC[C@@H](C)C1=CC(=O)C(C)=C(O)C1=O	16 µM
O=C1CCC2(c3ccc(Cl)cc3)Nc3ncncc3N12 (centres undefined)	> 10 µM
